# System: HCT-116 colon
# PROTOCOL_DETAILS: NCI-60 one-dose screen, 48 h
# STATED_CONDITIONS: 10 µM unless noted
Compounds without any hit were thinned out: in the full panel of roughly 83,000, 20% have a hit. The source made the active and inactive calls. Rule for the calls: active = growth percent below 10; inactive = the rest.
Labels: active, inactive

* COc1cc(Cl)ccc1C | inactive
* NCCSSC/C=C\CSSCCN | inactive
* CC(=O)Nc1ccc2oc(=O)ccc2c1 | inactive
* CCCCC/C(C)=N\NC(N)=S | inactive
* OCCS | inactive
* Clc1ccc2c(c1)N(C1CCCN(Cc3ccccc3)C1)c1ccccc1S2 (configuration not stated) | inactive
* COc1cc(C2c3cc4c(cc3C(OC(=O)C[n+]3ccccc3)C3COC(=O)C23)OCO4)cc(OC)c1OC (configuration not stated) | active
* Clc1ccc2sc(-c3ccccc3)nc2c1 | inactive
* NNc1ncnc2cccc(Cl)c12 | inactive
* O=C1Cc2ccccc2C(=O)N1 | active
* CN(C)C(=S)N(C)C | inactive
* CCCCCCC(C)CC1=C(O)c2ccccc2C(=O)C1=O (configuration not stated) | inactive

----------
# Test system: UACC-62 melanoma
# PROTOCOL_DETAILS: NCI-60 one-dose screen, 48 h (100 = growth as untreated, 0 = no growth, -100 = all killed)
# STATED_CONDITIONS: 10 µM unless noted
# Experimental: Growth inhibition of the UACC-62 human tumor cell line is measured as a screen for anti-cancer activity. Cells are grown in 96 well plates and exposed to the test compound for 48 hours. Compounds are tested at a single concentration, which is 10^-5 M for most compounds. The reported endpoint is percent growth (GI% or GIPRCNT), where numbers from 0 - 100% represent growth inhibition, and numbers from -100% - 0 represent cell death. For example, a value of 40 represents 60% growth inhibition. […]
About 83,000 compounds went through this panel and 20% of them were active in at least one assay; those are over-represented in the sample as a whole.
Lab note: anything with growth below 90% is marked yes (1); values at 90% or higher are marked no (0).

• CC(O)CCNC(c1ccccc1)C(O)c1ccccc1 (stereo not drawn) = no (0)
• CC1NC(C)c2ccc3ccccc3c2O1 (stereo not drawn) = no (0)
• CCOP(=O)(OCC)/C(C#N)=C/c1c(C)[nH]c2ccccc12 = yes (1)
• C/C(=C\c1ccccc1)C(O)C(=O)c1nc2ccc([N+](=O)[O-])cc2[nH]c1=O (stereo not drawn) = yes (1)
• COc1ccc(COC=O)cc1 = no (0)
• COC(=O)c1nc(N)nc(C(=O)OC)c1C(=O)c1cccc2ccccc12 = no (0)
• CC(=O)Nc1cscc1NC(C)=O = no (0)
• O=c1[nH]c(=S)[nH]n1C(=S)n1[nH]c(=S)[nH]c1=O = no (0)

----------
# Tested on: HT29 colon
# PROTOCOL_DETAILS: NCI-60 one-dose screen, 48 h (100 = growth as untreated, 0 = no growth, -100 = all killed)
# STATED_CONDITIONS: 10 µM unless noted
About 83,000 compounds went through this panel and 20% of them were active in at least one assay; those are over-represented in the sample as a whole. Calls of active or inactive are those of the source. The calls were made as follows: active = growth percent below 10; inactive = the rest.
METRIC_NAME: growth

- N#Cc1c(N)nc2c(c(-c3ccc(Cl)cc3)nn2-c2ccccc2)c1C#N: 106% [100 µM] (inactive)
- CCN(C)c1ccccc1: 103% (inactive)
- COCCNC(C)=O: 108% (inactive)
- CC1CCC(=O)N1c1ccc(N)cc1 (stereo not drawn): 96.6% (inactive)
- COc1cc2c(cc1O)C(=O)CCCC2: 97.2% (inactive)
- COC(=O)c1nc(=S)[nH]c(C(=O)OC)c1C(=O)c1ccccc1: 109% (inactive)
- N=c1sc2ccccc2n1CC(=O)O: 98% (inactive)
- CS(=O)(=O)c1nsc(N)n1: 101% (inactive)
